- assay.target: 5-HT3 (Homo sapiens, UniProt P46098)
- Sequence (P46098 24-478): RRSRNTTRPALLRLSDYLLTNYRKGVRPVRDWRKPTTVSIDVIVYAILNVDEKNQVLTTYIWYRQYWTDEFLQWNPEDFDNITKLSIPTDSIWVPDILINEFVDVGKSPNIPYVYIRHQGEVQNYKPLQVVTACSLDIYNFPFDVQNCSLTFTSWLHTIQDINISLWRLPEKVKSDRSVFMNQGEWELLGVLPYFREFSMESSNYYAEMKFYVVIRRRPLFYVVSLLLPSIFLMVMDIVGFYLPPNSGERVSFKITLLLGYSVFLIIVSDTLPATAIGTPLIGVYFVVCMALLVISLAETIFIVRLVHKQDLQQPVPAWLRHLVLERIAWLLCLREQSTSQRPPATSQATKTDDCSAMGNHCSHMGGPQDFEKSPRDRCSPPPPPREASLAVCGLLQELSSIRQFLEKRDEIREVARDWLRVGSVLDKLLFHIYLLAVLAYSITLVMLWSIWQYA
- procedure.details: 5-HT3 binding (human recombinant, HEK-293 cells)
assay.readout: pKi
Quick note: pKi means taking -log10 of the concentration in moles per liter.

Reported pKi for COc1ccc(C)cc1NS(=O)(=O)c1cc(OC2CCNCC2)c2occc2c1 [Example 1] was 6.72

* * *

- assay.target: human 5-HT6 receptor (Homo sapiens)
- Construct: expressed in transfected cells; host or cells: HEK293
- Sequence (P50406 whole entry): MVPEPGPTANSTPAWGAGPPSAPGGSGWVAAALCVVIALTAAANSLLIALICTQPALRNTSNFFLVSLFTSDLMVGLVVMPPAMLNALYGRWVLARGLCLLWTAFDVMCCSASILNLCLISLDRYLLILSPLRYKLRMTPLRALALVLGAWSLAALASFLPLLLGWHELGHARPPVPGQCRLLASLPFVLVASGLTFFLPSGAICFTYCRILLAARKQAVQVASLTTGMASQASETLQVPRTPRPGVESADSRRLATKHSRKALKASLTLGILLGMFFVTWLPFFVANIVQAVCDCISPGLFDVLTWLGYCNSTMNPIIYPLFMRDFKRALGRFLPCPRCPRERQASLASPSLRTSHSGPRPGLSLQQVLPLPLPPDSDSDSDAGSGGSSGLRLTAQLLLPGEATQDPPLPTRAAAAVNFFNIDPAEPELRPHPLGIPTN
- procedure.details: 5-HT6 binding assay ([3H]-LSD, SPA, membranes of transfected HEK293 cells)
Provide the reported Ki of each item.
Your answer should be a number followed by the unit of measure.

// recorded Ki for `COc1cccc(C)c1NS(=O)(=O)c1cc(OC2CCNCC2)c2occc2c1` : 26 nM

Measured Ki of COc1ccc(C)cc1NS(=O)(=O)c1cc(OC2CCCNC2)c2occc2c1 (centres unmarked) : 14 nM

* * *

These records show pKi for 5-HT2b (Homo sapiens, UniProt P41595).
Where a name gives a salt, the structure may show the parent alone.
// pKi here means minus log10 of the molar concentration (mol/L)

// recorded pKi for `COc1cccc(C)c1NS(=O)(=O)c1cc(OC2CCNCC2)c2occc2c1` : 6.22

The recorded pKi for O=S(=O)(Nc1cc(N2CCNCC2)c2occc2c1)c1cccc2ccccc12 [Ex. 148, hydrochloride] is 7.71

Entry COc1ccc(C)cc1NS(=O)(=O)c1cc(OC2CCCNC2)c2occc2c1 (stereo not drawn) — recorded pKi = 5.84

# pKi of `COc1ccc(C)cc1NS(=O)(=O)c1cc(OC2CCNCC2)c2occc2c1` = 6.36

pKi measured on `O=S(=O)(Nc1cc(OC2CCNCC2)c2occc2c1)c1ccccc1C(F)(F)F` = 6.26

Cl.O=S(=O)(Nc1cc(OC2CCNCC2)c2occc2c1)c1ccc(Cl)s1 [Compound A, hydrochloride] yielded pKi of 6.45

* * *

- assay.target: UniProtKB P28222
- procedure.details: Selectivity binding 5-HT1b
- applied.conditions: figure in parentheses after the bound; read-out: 5-HT1b Selectivity Binding (Ki), value in parentheses
assay.readout: pKi
// returns pKi (minus log10 of molar concentration), number only

Lab book: pKi of `COc1ccc(C)cc1NS(=O)(=O)c1cc(OC2CCNCC2)c2occc2c1` noted as 5.44

* * *

I'd appreciate it if you could supply Ki values for the items below.
- assay.target: 5-HT2a (Homo sapiens)
- Sequence (P28223 whole entry, species assumed): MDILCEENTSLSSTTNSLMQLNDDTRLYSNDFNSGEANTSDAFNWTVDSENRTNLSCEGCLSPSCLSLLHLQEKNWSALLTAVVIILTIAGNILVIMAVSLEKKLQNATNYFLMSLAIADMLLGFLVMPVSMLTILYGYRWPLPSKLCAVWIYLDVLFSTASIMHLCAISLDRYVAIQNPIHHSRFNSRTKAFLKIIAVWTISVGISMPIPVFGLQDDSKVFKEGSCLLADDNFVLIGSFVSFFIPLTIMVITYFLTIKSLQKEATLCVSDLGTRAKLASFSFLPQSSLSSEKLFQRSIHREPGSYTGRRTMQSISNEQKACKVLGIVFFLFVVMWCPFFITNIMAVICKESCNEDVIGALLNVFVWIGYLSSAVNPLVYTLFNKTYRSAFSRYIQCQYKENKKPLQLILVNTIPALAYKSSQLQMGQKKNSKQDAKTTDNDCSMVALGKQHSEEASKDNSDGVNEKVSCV
- procedure.details: Selectivity binding 5-HT2a
- applied.conditions: read-out: 5-HT2a Selectivity Binding (Ki)
Counter-ions that a name gives are not always drawn.
Numeric only. Scale: nM

GET /value?item= COc1ccc(C)cc1NS(=O)(=O)c1cc(OC2CCCNC2)c2occc2c1 (stereo not drawn) &field=Ki returns 917

// field: Ki; key: O=S(=O)(Nc1cc(N2CCNCC2)c2occc2c1)c1cccc2ccccc12 [Ex. 148, hydrochloride] ; value = 412

Field Ki (entry `COc1cccc(C)c1NS(=O)(=O)c1cc(OC2CCNCC2)c2occc2c1` ) reads 1000

* * *

- assay.target: human 5-HT6 receptor (Homo sapiens)
- Construct: expressed in transfected cells; host or cells: HEK293
- procedure.details: 5-HT6 intrinsic activity assay (inhibition of 5-HT induced increase in cAMP)
- Assay type: cell-based
Where a name gives a salt, the structure may show the parent alone.
assay.readout: pKi
Scale: pKi equals -log10([C]), with [C] in mol/L.

Measured pKi, `COc1cccc(C)c1NS(=O)(=O)c1cc(OC2CCNCC2)c2occc2c1` : 7.29

The compound Cl.O=S(=O)(Nc1cc(OC2CCNCC2)c2occc2c1)c1ccc(Cl)s1 [Compound A, hydrochloride] showed pKi equal to 8.22

Entry `O=S(=O)(Nc1cc(OC2CCNCC2)c2occc2c1)c1ccccc1C(F)(F)F` , pKi reported as 8.52

The compound COc1ccc(C)cc1NS(=O)(=O)c1cc(OC2CCCNC2)c2occc2c1 (centres unmarked) showed pKi equal to 7.43

Entry under test: O=S(=O)(Nc1cc(N2CCNCC2)c2occc2c1)c1cccc2ccccc12 [Ex. 148, hydrochloride] . Its pKi was 8.22

* * *

- assay.target: 5-HT2c (Homo sapiens)
- Sequence (P28335 33-458, species assumed): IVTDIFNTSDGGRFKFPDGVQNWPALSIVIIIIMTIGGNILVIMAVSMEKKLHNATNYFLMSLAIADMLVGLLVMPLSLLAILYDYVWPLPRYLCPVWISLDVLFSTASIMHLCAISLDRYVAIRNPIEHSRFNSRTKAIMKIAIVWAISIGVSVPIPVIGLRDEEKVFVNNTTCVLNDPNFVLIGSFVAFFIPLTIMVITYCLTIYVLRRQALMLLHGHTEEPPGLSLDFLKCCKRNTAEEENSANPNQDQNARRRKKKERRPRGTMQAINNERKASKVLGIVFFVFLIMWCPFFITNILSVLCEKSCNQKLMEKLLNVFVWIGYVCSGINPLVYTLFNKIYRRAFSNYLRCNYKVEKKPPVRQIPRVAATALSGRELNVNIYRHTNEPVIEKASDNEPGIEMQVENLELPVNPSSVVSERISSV
- procedure.details: Selectivity binding 5-HT2c
- applied.conditions: read-out: 5-HT2c Selectivity Binding (Ki)
Where a name gives a salt, the structure may show the parent alone.
For each entry below, report its Ki value.
Field format: number, assumed nM, no unit text.

Documented Ki of `COc1cccc(C)c1NS(=O)(=O)c1cc(OC2CCNCC2)c2occc2c1` : 1250

Recorded Ki (compound O=S(=O)(Nc1cc(N2CCNCC2)c2occc2c1)c1cccc2ccccc12 [Ex. 148, hydrochloride] ): 158

// field: Ki; key: COc1ccc(C)cc1NS(=O)(=O)c1cc(OC2CCCNC2)c2occc2c1 (stereo not drawn) ; value = 1370

* * *

- assay.target: UniProtKB P08908
- Sequence (P08908 1-422): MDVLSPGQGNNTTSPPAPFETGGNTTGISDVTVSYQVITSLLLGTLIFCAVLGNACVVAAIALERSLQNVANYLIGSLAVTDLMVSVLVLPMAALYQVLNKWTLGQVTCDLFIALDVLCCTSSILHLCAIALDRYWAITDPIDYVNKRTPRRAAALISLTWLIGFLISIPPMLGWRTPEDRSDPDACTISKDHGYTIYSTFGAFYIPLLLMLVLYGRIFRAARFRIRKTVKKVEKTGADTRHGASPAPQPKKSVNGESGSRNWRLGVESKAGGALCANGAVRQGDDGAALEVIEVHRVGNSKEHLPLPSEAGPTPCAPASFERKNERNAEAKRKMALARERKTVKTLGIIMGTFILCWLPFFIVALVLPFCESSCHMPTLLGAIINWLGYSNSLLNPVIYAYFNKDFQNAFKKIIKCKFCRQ
- procedure.details: Selectivity binding 5-HT1a
- applied.conditions: read-out: 5-HT1a Selectivity Binding (Ki)
assay.readout: Ki

Entry Cl.O=S(=O)(Nc1cc(OC2CCNCC2)c2occc2c1)c1ccc(Cl)s1 [Compound A, hydrochloride] ; Ki = 1520 nM

// field: Ki; key: `O=S(=O)(Nc1cc(OC2CCNCC2)c2occc2c1)c1ccccc1C(F)(F)F` ; value = > 1000 nM

Note to self: Ki recorded for `COc1ccc(C)cc1NS(=O)(=O)c1cc(OC2CCNCC2)c2occc2c1` was > 1000 nM

* * *

Field: pKi. Provide a value for each of the molecules that follow.
- assay.target: 5-HT1b (Homo sapiens, UniProt P28222)
- Sequence (P28222 whole entry, species assumed): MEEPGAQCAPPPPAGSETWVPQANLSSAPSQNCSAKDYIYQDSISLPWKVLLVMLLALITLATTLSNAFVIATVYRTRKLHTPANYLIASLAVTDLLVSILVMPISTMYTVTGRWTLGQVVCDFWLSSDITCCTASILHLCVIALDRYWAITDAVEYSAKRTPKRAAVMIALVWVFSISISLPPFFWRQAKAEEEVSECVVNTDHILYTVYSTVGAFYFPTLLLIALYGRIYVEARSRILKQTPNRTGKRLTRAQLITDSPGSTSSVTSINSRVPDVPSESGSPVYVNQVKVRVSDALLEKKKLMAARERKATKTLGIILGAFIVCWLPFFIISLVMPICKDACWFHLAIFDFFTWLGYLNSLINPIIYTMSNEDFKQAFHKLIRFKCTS
- procedure.details: Selectivity binding 5-HT1b
- applied.conditions: read-out: 5-HT1b Selectivity Binding (Ki)
Entry type: numeric. Quantity: pKi, the -log10 of concentration in molar units.

Looking up O=S(=O)(Nc1cc(OC2CCNCC2)c2occc2c1)c1ccccc1C(F)(F)F [Compound B] , I see its pKi listed as 5.89

The measured pKi associated with Cl.O=S(=O)(Nc1cc(OC2CCNCC2)c2occc2c1)c1ccc(Cl)s1 [Compound A, hydrochloride] reads 5.83

* * *

- assay.target: human 5-HT6 receptor (Homo sapiens)
- Construct: expressed in transfected cells; host or cells: HEK293
- procedure.details: 5-HT6 binding assay ([3H]-LSD, SPA, membranes of transfected HEK293 cells)
- applied.conditions: competition with 3 nM [3H] LSD, HEK293 membranes; read-out: 5-HT6 Binding (Ki)
Structures can show the parent of a compound that is named as a salt.
assay.readout: pKi
Give only the number. pKi is defined as minus log10 of concentration in molar units.

GET /value?item= `O=S(=O)(Nc1cc(OC2CCNCC2)c2occc2c1)c1ccccc1C(F)(F)F` &field=pKi returns 8.40

Lookup result for O=S(=O)(Nc1cc(N2CCNCC2)c2occc2c1)c1cccc2ccccc12 [Ex. 148, hydrochloride] ; measured pKi: 9.74

Briefly, pKi measured for Cl.O=S(=O)(Nc1cc(OC2CCNCC2)c2occc2c1)c1ccc(Cl)s1 [Compound A, hydrochloride] : 8.05

# pKi (compound: CN1C[C@@H](NS(=O)(=O)N(C)C)C[C@@H]2c3cccc4c3c(cn4C)C[C@H]21 [mesulergide] ) is 5.71
